# Assay Target: human sphingosine-1-phosphate receptor 1 (S1P1) (Homo sapiens, UniProt P21453)
# Method Summary: β-Arrestin2 recruitment assay (PathHunter), S1P1 CHO-K1 cells
# Format: cell-based
# Study Conditions: β-arrestin2 recruitment; potency; read-out: hS1P1 B-arrestin2 pEC50 (converted)
# Method: Stable clonal Chinese hamster ovary K1 (CHO-K1) cells co-expressing EA-β-arrestin2 and the human sphingosine-1-phosphate receptor 1 (NM_001400, S1P1) with a C-terminal Prolink™ tag were purchased from DiscoverX corporation (Cat #: 93-0207C2). […] Agonist-promoted β-arrestin2 recruitment to the sphingosine-1-phosphate 1 receptor was determined using the β-arrestin PathHunter® Detection kit (DiscoverX Corporation, Cat #: 93-0001). […]
# Sequence (P21453 whole entry): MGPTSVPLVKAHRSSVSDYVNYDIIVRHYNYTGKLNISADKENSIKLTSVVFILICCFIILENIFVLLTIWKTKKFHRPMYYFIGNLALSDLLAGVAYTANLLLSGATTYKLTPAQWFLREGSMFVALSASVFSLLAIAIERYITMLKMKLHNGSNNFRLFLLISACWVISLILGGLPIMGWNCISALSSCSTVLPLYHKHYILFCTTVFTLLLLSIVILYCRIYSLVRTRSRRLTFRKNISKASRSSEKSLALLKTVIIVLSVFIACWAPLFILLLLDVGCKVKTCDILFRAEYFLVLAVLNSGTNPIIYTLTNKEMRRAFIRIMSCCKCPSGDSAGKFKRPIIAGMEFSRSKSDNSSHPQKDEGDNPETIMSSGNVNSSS
# Sequence (P32121 whole entry partner): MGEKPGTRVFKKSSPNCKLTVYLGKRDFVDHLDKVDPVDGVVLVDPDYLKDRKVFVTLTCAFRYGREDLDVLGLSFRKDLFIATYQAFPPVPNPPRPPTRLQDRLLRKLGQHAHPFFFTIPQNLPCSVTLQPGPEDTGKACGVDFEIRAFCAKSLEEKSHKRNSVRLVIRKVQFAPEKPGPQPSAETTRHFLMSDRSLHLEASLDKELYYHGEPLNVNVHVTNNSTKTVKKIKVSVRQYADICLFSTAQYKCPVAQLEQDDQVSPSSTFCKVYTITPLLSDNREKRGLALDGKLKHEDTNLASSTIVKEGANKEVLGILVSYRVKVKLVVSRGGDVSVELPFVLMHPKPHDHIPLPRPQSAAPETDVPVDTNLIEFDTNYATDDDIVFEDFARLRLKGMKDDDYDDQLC
Assay Endpoint: EC50

Previously resolved entries follow.
Cc1nccnc1-c1nc(-c2ccc3c(c2)nnn3C(C)C)no1 [Compound 44] : > 10 µM
CC(C)c1ccc(-c2nc(-c3ccc4c(c3)nnn4C(C)C)no2)cn1 [Compound 25] : > 10 µM
Cc1ccsc1-c1noc(-c2ccc3c(c2)nnn3C(C)C)n1 [Compound 169] : < 10 µM
CCC1(CC)CC(=O)c2cc(-c3nc(-c4ccncc4F)no3)ccc2O1 [Compound 226] : > 10 µM
CC(C)n1nnc2cc(-c3nc(-c4ccc(COc5ccccc5)cc4)no3)ccc21 [Compound 49] : > 10 µM

Any idea what its EC50 is? The compound is O=C1CC2(CCCC2)Oc2ccc(-c3nc(-c4cccnc4)no3)cc21 [Compound 298]
< 10 µM

Which EC50 is reported for this compound? CCC1(CC)CC(=O)c2cc(-c3nc(-c4ccccc4OC)no3)ccc2O1 [Compound 268]
< 10 µM

Return reported EC50; argument: CC(C)n1nnc2cc(-c3ncc(-c4ccccc4F)s3)ccc21 [Compound 63]
> 10 µM

Item Cc1ccc(-c2noc(-c3ccc4c(c3)nnn4C3CCCC3)n2)s1 [Compound 192] has what recorded EC50?
> 10 µM

Given the entry CCC1(CC)CC(=O)c2cc(-c3nc(-c4ccc(S(=O)(=O)N(C)C)cc4)no3)ccc2O1 [Compound 30] , report its measured EC50.
> 10 µM

Using the record for CC(C)n1nnc2cc(-c3nc(-c4cncnc4)no3)ccc21 [Compound 249] , report its EC50.
> 10 µM

// EC50 lookup, key: CC(C)Oc1ccccc1-c1noc(-c2ccc3c(c2)nnn3C(C)C)n1 [Compound 62]
> 10 µM

Consider the compound CC(C)n1nnc2cc(-c3nc(-c4ccccc4Cl)no3)ccc21 [Compound 17] and give its measured EC50.
< 10 µM

Please look up its EC50: CC(C)n1nnc2cc(-c3noc(-c4cccc(COc5ccccc5)c4)n3)ccc21 [Compound 23]
> 10 µM

// returns reported EC50 for input CCC1(CC)CC(=O)c2cc(-c3nc(-c4cccc(C)c4)no3)ccc2O1 [Compound 225]
< 10 µM

Quick check: EC50 of COc1cccc(-c2noc(-c3ccc4c(c3)nnn4C(C)C)n2)c1 [Compound 228] ?
> 10 µM

What does the data say about its EC50? Entry: C=CCNc1ccc(-c2nc(-c3ccc4sc(N)nc4c3)no2)cc1C#N [Compound 267]
< 10 µM

----------
# Assay Target: human sphingosine-1-phosphate receptor 1 (S1P1) (Homo sapiens, UniProt P21453)
# Method Summary: Inhibition of cAMP production (HTRF cAMP HiRange), S1P1 CHO-K1 cells
# Assay type: cell-based
# Study Conditions: inhibition of cAMP production; potency; read-out: hS1P1 CAMP pEC50 (converted)
# Sequence (P21453 whole entry): as the sequence (P21453 whole entry) above
EC50 values for the compounds below.

CCCn1nnc2cc(-c3nc(-c4ccc(F)cc4)no3)ccc21 [Compound 5] : > 316 nM
Cc1ccncc1-c1noc(-c2ccc3c(c2)nnn3C(C)C)n1 [Compound 101] : < 316 nM
CCC1(CC)CC(=O)c2cc(-c3nc(-c4ccnc(OC)c4)no3)ccc2O1 [Compound 38] : > 316 nM
CC(C)n1nnc2cc(-c3noc(-c4cccc(COc5ccccc5)c4)n3)ccc21 [Compound 23] : > 316 nM
Cc1cnccc1-c1nc(-c2ccc3c(ccn3C(C)C)c2)no1 [Compound 142] : < 316 nM
CC(C)n1nnc2cc(-c3nc(-c4ccccc4O)no3)ccc21 [Compound 180] : > 316 nM
CC(C)n1nnc2cc(C(=O)Nc3noc4ccccc34)ccc21 [Compound 181] : > 316 nM
CC(C)n1nnc2cc(-c3noc(C45CC6CC(CC(C6)C4)C5)n3)ccc21 [Compound 200] : > 316 nM

Entry FC(F)(F)Oc1ccccc1-c1nc(-c2ccc3c(c2)nnn3C2CCCC2)no1 [Compound 84] : reported EC50 = ?
> 316 nM
